Listed next: entries and their corresponding Cytotoxicity on THP‐1 (100, 20, 4 µM) (%).
- System: THP-1 cells
- method.notes: Evaluation of cytotoxicity on THP-1 cells (MTS)
- Format: cell-based, human
- particulars: 4 µM, 72 h, PMA-differentiated THP-1
- Protocol: Finally, eighteen compounds were first screened for efficacy against L. infantum MHOM/TN/80/IPT1 promastigotes at a single dose of 20 µM for 72 hours. […] The cytotoxicity of the compounds was assessed on THP-1 cells seeded at a density of 5 × 10^5 cells per mL, 100μL/well in a 96-well plate and treated for 72 h with 20 ng/mL phorbol myristic acid (PMA) to induce differentiation into macrophages like cells. […]
# unit: % | format: bare number

CC(C)Cc1ccc(-c2ccc3c(C(CN)c4c[nH]c5cc(-c6ccc(CC(C)C)cc6)ccc45)c[nH]c3c2)cc1 [3ac] :: −17
COc1ccccc1-c1ccc2c(C(CN)c3c[nH]c4cc(-c5ccccc5OC)ccc34)c[nH]c2c1 [3ak] :: −4
NCC(c1c[nH]c2c(-c3ccccc3)cccc12)c1c[nH]c2c(-c3ccccc3)cccc12 [3ca] :: −19

Would you kindly look at the next entry?
Input: Field request: Cytotoxicity on THP‐1 (100, 20, 4 µM) (%) | item: COc1cccc(-c2ccc3c(C(CN)c4c[nH]c5cc(-c6cccc(OC)c6)ccc45)c[nH]c3c2)c1 [3aj]
Output: 2
